// values below are reported kon
target: T1, Soluble heterodimeric CD3 protein (hCD3-epsilon/hCD3-delta) with either a human Fc tag (hFcΔAdp/hFc) or a … (human, UniProt P07766 23-126; P04234 22-105); assay: SPR Biacore 25C antigen-capture
T1 construct: also called hCD3ε/δ; not shown: Fc tag: human (hFcΔAdp/hFc)
T1 sequence (P07766 23-126 limits assumed, stated change not applied, chain 1 of 2): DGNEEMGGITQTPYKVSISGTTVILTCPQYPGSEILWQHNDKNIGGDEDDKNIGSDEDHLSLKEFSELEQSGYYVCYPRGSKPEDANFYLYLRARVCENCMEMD
T1 sequence (P04234 22-105 limits assumed, stated change not applied, chain 2 of 2): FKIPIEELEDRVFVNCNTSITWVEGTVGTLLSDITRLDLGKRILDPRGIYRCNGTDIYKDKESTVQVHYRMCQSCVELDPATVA
Answer format: numeric, M⁻¹ s⁻¹ implied, no suffix.

Recorded results for 2 binders are shown here.
H1H5791B (antibody, human IgG1, V domains shown, H1H: human IgG1 Fc; divalent) VH: QVQLVESGAEVKKPGASVKVSCKTSGYTLSGYYMHWMRQAPGQGLEWMGWINPKSGVTNYAQKFQDRVAMTRDTSISTAYMELSRLRSDDTAVYYCARMGDGAVFDFWAQGTLVTVSS VL: DIQLTQSPSSLSASVGDRVTITCRASQRISSFLNWYQQKPGKAPKLLIYTASNLQNGVPSRFSGSGSGTDFTLTISSLQPEDFATYYCQQSYRTPLTFGGGTKLEIKR :: 786000
H1H5755B (antibody, human IgG1, V domains shown, H1H: human IgG1 Fc; divalent) VH: EVQLVESGGGVVQPGRSLRLSCAASGFTFSNYGMHWVRQAPGKGLEWVTVILHDGSYKYYADSVKGRFTISRDNSKNTLHLQMNSLRTEDTAVYYCAKGPMFRGVPYNHYYGMDVWGQGTTVTVSS VL: DIQMTQSPSSLSASVGDRVTITCRASQGIRNDLGWYQQKPGKAPKRLIYAASSLQSGVSSRFSGSGSGTEFTLTISSLQPEDFATYYCLQHNSYPYTFGQGTKVEIKR :: 215000

Now take the following binder into account.
Exam item: Report measured kon; entry is H1H5756B (antibody, human IgG1, V domains shown, H1H: human IgG1 Fc; divalent) VH: EVQLVESGGGVVQPGRSLRLSCTASGFPFSRYGMHWVRQAPGKGLEWVTFIWYDGSNKYYADSAKGRFTITRDNSKNTVYLQMDSLRADDTAVYYCVRDQAALYYFDSWGQGTLVTVSS VL: DIQMTQSPSSVSASVGDRVTITCRASQGISRWLAWYQQKPGKAPKLLISAASSLQSGVPSRFSGSGSGTDFTLTISGLQPEDFATYYCQKANSFPFTFGPGTKLEIKR
Marked response: 144000
